Provide the reported Relative cAMP EC50, nM (0.1% casein) of each item.
biological target: human glucagon receptor (human) (UniProt P47871); assay: cell-based or functional assay
Sequence (P47871 26-477): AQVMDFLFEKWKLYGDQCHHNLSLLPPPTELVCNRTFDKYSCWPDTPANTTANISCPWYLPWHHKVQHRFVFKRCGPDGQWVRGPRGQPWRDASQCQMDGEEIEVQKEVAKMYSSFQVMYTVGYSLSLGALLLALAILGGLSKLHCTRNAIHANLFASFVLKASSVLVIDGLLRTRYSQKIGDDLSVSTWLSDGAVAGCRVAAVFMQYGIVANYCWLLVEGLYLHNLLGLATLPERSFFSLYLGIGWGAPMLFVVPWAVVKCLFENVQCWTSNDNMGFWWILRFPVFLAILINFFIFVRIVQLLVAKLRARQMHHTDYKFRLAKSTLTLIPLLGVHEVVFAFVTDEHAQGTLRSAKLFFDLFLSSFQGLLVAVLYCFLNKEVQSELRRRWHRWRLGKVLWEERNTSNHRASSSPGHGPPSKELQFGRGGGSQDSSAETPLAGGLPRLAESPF

[ask] Endpoint output: Relative cAMP EC50, nM (0.1% casein) of YXQGTFTSDFSXXLDKKAQXAFIEYLLEXGPSSGEPPPSGS (Aib, Orn, αMeL, acylated K, C-terminal amide; synthetic construct; SITE 2: note = 2-Aminoisobutyric Acid; SITE 12: note = L-ornithine; SITE 13: note = alpha-methyl-leucine; SITE 17: note = Lysine is chemically modified through conjugation of the epsilon-amino group of the Lysine side chain with (2-[2-(2-Amino-ethoxy)-ethoxy]-acetyl)2-(gamma-Glu)) [Example 166] . Value?
[reply] 3.82 nM

[ask] Requested read-out: Relative cAMP EC50, nM (0.1% casein). Entry: YXQGTXTSDXSIXLDXKAQXAFIEYLEEGGPSSGEPPPS (synthetic construct; SITE 2: note = 2-Aminoisobutyric Acid; SITE 6: note = alpha-methyl-2-fluoro-L-phenylalanine; SITE 10: note = 3-(4-Pyridyl)-L-alanine; SITE 13: note = alpha-methyl-leucine; SITE 16: note = L-ornithine; SITE 17: note = Lysine is chemically modified through conjugation of the epsil) [Example 486]
[reply] 4.43 nM

[ask] Report Relative cAMP EC50, nM (0.1% casein) for YXQGTXTSDXXIXLDXKAQXXFIEXLIEGGPSSGEPPPEEG (synthetic construct; SITE 2: note = 2-Aminoisobutyric Acid; SITE 6: note = alpha-methyl-2-fluoro-L-phenylalanine; SITE 10: note = 3-(4-Pyridyl)-L-alanine; SITE 11: note = alpha-methyl-L-serine; SITE 13: note = alpha-methyl-leucine; SITE 16: note = L-ornithine; SITE 17: note = Lysine is chemically mo) [Example 462] please.
[reply] 1.69 nM

[ask] Returns the measured Relative cAMP EC50, nM (0.1% casein) for the input binder. Input: YXQGTFTSDXSXXLDKKAQXAFIEYLLEXGHSSGAPPPSGS (Aib, F(4CN), Orn, αMeL; lysine acylated C18 diacid; amide; synthetic construct; SITE 2: note = 2-Aminoisobutyric Acid; SITE 10: note = 4-cyano-L-phenylalanine; SITE 12: note = L-ornithine; SITE 13: note = alpha-methyl-leucine; SITE 17: note = Lysine is chemically modified through conjugation of the epsilon-amino group of the Lysine side chain with (2-[2-(2-) [Example 190]
[reply] 2.95 nM

[ask] Data request, read-out Relative cAMP EC50, nM (0.1% casein), for YXQGTFTSDFSXXLDKKAQXAFIEYLLEXGHSSGAPPPSGS ((AEEA)2-γGlu-C18 diacid on Lys; non-natural residues; amide; synthetic construct; SITE 2: note = 2-Aminoisobutyric Acid; SITE 12: note = L-ornithine; SITE 13: note = alpha-methyl-leucine; SITE 17: note = Lysine is chemically modified through conjugation of the epsilon-amino group of the Lysine side chain with (2-[2-(2-Amino-ethoxy)-ethoxy]-acetyl)2-(gamma-Glu)) [Example 181]
[reply] 6.25 nM
